Target: PA1b receptor
Test: Competitive ligand binding with 125I-PA1b on microsomal protein
Details: competition with 0.4 nM 125I-PA1b, 20 µg microsomal protein per assay, peptide 0.01 to 1000 nM; mean ± standard error; read-out: Ki (affinity to the PA1b receptor)
Ends that are not written are not given here.
observationType: Ki

ASCPNVGAVCSPAETKPCGNVKDCRCLPWGLFFGTCINPTG (also: bicyclic or more (positions not given here)) [F13A, single point alanine mutant of AG41 at Phe-13] | > 1000 nM

With those in mind, consider the next sequence.
query: Entry ASCPNVGAVCSPFETKPCGNVKDCACLPWGLFFGTCINPTG (also: bicyclic or more (positions not given here)) [R25A, single point alanine mutant of AG41 at Arg-25] : reported Ki = ?
result: > 1000 nM
